Target: ~100 representative kinases (Homo sapiens)
Construct: Recombinant protein kinase domains with a concentration of 2 μM
Sequence (Q13557 whole entry, the tested form may be a part): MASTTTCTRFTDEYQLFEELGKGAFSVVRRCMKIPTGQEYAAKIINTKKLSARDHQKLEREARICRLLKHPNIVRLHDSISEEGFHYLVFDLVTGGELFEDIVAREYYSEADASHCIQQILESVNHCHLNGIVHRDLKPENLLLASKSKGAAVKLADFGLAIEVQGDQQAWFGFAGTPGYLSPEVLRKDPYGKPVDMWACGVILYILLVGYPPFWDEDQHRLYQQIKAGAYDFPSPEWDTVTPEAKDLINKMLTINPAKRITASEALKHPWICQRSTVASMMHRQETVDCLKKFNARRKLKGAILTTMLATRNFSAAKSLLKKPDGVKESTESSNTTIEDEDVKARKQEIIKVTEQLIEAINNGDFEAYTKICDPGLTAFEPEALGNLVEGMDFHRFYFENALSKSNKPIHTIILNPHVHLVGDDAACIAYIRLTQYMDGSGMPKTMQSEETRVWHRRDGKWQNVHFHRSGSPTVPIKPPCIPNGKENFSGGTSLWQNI
Experiment: DSF 100 kinase selectivity screen;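 also: compound tested at 20 µM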
Format: binding
Settings: Protein CAMK2D; average of three replicates
Protocol: Recombinant protein kinase domains with a concentration of 2 μM were mixed with a 20 μM compound solution in dimethyl sulfoxide (DMSO), 20 mM Hepes (pH 7.5), and 500 mM NaCl. SYPRO Orange (5000×, Invitrogen) was added as a fluorescence probe (1μl/ml). Subsequently, temperature-dependent protein unfolding profiles were measured using the QuantStudio 5 realtime PCR machine (Thermo Fisher Scientific, Waltham, MA, USA). […] The temperature was raised with a step rate of 3°C/min. […]
Quick reference: dTm of the listed items.
Use K as the unit, but write only the number.

Sample records with dTm:
{"compound": "COc1cc2c(Oc3ccc(NC(=O)C4(C(=O)Nc5ccc(F)cc5)CC4)cc3F)ccnc2cc1OCCCN1CCOCC1 [Foretinib, reference compound]", "dTm [K]": 0.34}
{"compound": "Cc1ccc(C(=O)Nc2ccc(CN3CCN(C)CC3)c(C(F)(F)F)c2)cc1C#Cc1cnc2[nH]ncc2c1 [GZD-824, reference compound]", "dTm [K]": -0.21}

Continue with the next compound.
Fill in: dTm of C[C@@H]1CN(c2cc(-c3n[nH]c4ccc(OC5(C)CC5)cc34)ncn2)C[C@H](C)O1 is ___
1.10

Provenance of the data: paper PMC12136037
